Molecular target: T1, human ROR1-Fz (Homo sapiens, UniProt Q01973)
T1 construct: Frizzled (Fz, residues 165-305); HIS6 (C); purchased Acro Biosystems; host or cells: HEK293
T1 sequence (Q01973 165-305): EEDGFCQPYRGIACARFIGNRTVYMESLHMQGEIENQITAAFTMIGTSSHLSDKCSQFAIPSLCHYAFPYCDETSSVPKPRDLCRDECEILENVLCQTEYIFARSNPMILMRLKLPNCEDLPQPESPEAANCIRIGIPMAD
Test: Biacore off-rate and kinetic analysis, ROR1 frizzled domain
Format: binding
Settings: Table 11 (SP34 light chain)
observed property: Biacore human ROR1-Fz ka (M⁻¹ s⁻¹)
Give bare numbers, in M⁻¹ s⁻¹.

// solved cases for Biacore human ROR1-Fz ka follow
>  <molecule>
SRP1944-A07 w SP34 LC3 (antibody, V domains shown) VH: EVQLVESGGGLVQPGGSLRLSCAASGFNITGYYIHWVRQAPGKGLEWVGYISPNSGSTYYADSVKGRFTISADTSKNTAYLQMNSLRAEDTAVYYCARDSRRYVRPFDYWGQGTLVTVSS VL: QTVVTQEPSLTVSPGGTVTLTCGSSTGAVTSGYYPNWFQQKPGQAPRGLIGGTKFLAPGTPARFSGSLLGGKAALTLSGVQPEDEAEYYCALWYSNRWVFGGGTQLTVTG

>  <observed property>
Biacore human ROR1-Fz ka

>  <observed measurement>
597000

$$$$
>  <molecule>
SRP2196-B09 (antibody, V domains shown) VH: EVQLVESGGGLVQPEGSLRLSCAASGFNITEYYIHWVRQAPGKGLEWVGYISPNSGSTYYADSVKGRFTISADTSKNTAYLQMNSLRAEDTAVYYCARDSRRYVRSWDYWGQGTLVTVSS VL: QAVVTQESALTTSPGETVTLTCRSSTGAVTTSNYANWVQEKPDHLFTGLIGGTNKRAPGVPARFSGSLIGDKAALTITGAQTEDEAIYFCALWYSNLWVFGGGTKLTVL

>  <observed property>
Biacore human ROR1-Fz ka

>  <observed measurement>
130000

$$$$
>  <molecule>
SRP2196-B10 (antibody, V domains shown) VH: EVQLVESGGGLVQPGGSLRLSCAASGFNITGYYIHWVRQAPGKGLEWVGSITPLSGATSKADSVKGRFTISADTSKNTAYLQMNSLRAEDTAVYYCARDSRRYIRSWDYWGQGTLVTVSS VL: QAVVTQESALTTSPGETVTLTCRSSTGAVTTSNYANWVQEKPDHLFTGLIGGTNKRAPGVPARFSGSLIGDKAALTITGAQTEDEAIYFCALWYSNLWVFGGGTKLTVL

>  <observed property>
Biacore human ROR1-Fz ka

>  <observed measurement>
128000

$$$$
>  <molecule>
SRP2196-C03 (antibody, V domains shown) VH: EVQLVESGGGLVQPGGSLRLSCAASGFNITGYYIHWVRQAPGKGLEWVGQISPNSGSTYSADSVKGRFTISADTSKNTAYLQMSSLRAEDTAVYYCARDSRRYVLSWDYWGQGTLVTVSS VL: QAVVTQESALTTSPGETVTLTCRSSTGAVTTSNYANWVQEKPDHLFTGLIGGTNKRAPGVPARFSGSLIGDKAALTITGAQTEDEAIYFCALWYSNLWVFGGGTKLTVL

>  <observed property>
Biacore human ROR1-Fz ka

>  <observed measurement>
143000

$$$$

Input: Tell me measured Biacore human ROR1-Fz ka for SRP2196-A10 (antibody, V domains shown) VH: EVQLVESGGGLVQPGGSLRLSCAASGFNITGYYIHWVRQAPGKGLEWVGYISPNSGATHYADSVKGRFTISADISKNTAYLQMNSLRAEDTAVHYCARDSRRYVRSWDYWGQGTLVTVSS VL: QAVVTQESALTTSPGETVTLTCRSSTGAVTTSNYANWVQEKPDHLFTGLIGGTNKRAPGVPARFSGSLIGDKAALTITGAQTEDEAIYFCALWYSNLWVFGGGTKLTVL please.
Output: 172000

Where do the numbers come from? From patent US12226490B2.
